Origin of values: patent US20230078764A1

Target Desc: human SCD1 (Homo sapiens, UniProt O00767)
Construct: expressed in transfected cells; host or cells: yeast strain with OLE1 deleted, plasmid-borne human SCD1 (selected in SD-Ura)
Sequence (O00767 1-359): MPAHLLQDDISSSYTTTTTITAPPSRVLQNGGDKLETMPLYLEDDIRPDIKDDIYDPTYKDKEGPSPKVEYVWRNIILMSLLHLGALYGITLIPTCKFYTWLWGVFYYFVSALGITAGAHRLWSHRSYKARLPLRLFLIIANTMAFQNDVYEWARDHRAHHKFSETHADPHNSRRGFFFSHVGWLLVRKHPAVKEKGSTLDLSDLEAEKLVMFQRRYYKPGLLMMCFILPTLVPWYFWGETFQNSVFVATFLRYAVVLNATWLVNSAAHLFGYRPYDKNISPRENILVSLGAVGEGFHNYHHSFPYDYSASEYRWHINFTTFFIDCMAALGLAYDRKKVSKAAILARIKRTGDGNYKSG
Assay Remarks: Growth inhibition of yeast strain expressing human SCD1 as sole desaturase (OLE1 deleted), OD600 readout
Assay type: cell-based
Settings: yeast strain expressing human SCD1 as sole desaturase; growth (OD600) after 40 h at 30° C.; read-out: SCD1 IC50
Reported Metric: IC50 (µM)

INSERT INTO results (compound, target_desc, value_observed) VALUES
  ('CC(C)n1nc(C(=O)Nc2ccc(Cc3cccc(Cl)c3)cn2)ccc1=O [Compound 73]', 'human SCD1 (Homo sapiens, UniProt O00767)', 8.08);

[I] N#Cc1ccc(NC(=O)c2ccc(Cc3ccc(F)c(F)c3)cn2)cn1 [Compound 542]
[II] Cc1cc(C(=O)Nc2ccc(Cc3cc(F)cc(C#N)c3)cn2)nc(C)n1 [Compound 606]
[III] N#Cc1ccc(C(=O)Nc2ccc(Cc3cc(F)cc(F)c3)cn2)nc1 [Compound 493]
Challenge: hey, can you rank those compounds up there by IC50? biggest number first please Answer by listing the labels in the requested order.
Response given: III, I, II

---

Target Desc: human SCD5 (Homo sapiens, UniProt Q86SK9)
Construct: expressed in transfected cells; host or cells: yeast strain with OLE1 deleted, plasmid-borne human SCD5 (selected in SD-Ura)
Sequence (Q86SK9 whole entry): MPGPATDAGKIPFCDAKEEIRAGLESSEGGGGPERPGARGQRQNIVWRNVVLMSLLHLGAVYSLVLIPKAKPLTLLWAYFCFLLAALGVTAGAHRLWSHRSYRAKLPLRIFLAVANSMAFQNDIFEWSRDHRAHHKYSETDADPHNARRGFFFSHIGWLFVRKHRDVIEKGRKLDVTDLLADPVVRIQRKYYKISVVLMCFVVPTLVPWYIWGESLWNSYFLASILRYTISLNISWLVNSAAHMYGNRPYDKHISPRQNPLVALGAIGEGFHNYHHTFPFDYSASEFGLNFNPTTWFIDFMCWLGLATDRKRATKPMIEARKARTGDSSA
Assay Remarks: Growth inhibition of yeast strain expressing human SCD5 as sole desaturase (OLE1 deleted), OD600 readout
Type: cell-based
Settings: yeast strain expressing human SCD5 as sole desaturase; growth (OD600) after 40 h at 30° C.; read-out: SCD5 IC50
pIC50: −log10 of the molar value.
Reported Metric: pIC50

[I] Cn1nc(C(=O)Nc2nnc(Cc3ccc(F)c(Cl)c3)s2)ccc1=O [Compound 347]
[II] N#Cc1cc(C(=O)Nc2ccc(Cc3cc(F)cc(F)c3)cn2)cnn1 [Compound 662]
Challenge: Look at I and II . Which one has the lower recorded pIC50 number? Return value: the label identifying the chosen record.
Response given: I
(I: 6.15, II: 6.74)

[A] Cn1nc(NC(=O)c2ccc(Cc3cc(F)cc(F)c3)cn2)ccc1=O [Compound 310]
[B] Cn1nc(C(=O)Nc2nc(Br)c(Cc3cccc(F)c3)s2)ccc1=O [Compound 317]
[C] O=C(Nc1ccc(Cc2cc(F)cc(F)c2)cn1)c1ccnnc1 [Compound 622]
Challenge: Order the 3 molecules from highest to lowest pIC50. In plain terms: list the labels in the order you were asked to.
Response given: A, C, B

[A] Cn1nc(C(=O)Nc2ccc(Cc3ccc(F)c(Cl)c3)nn2)ccc1=O [Compound 180]
[B] O=C(Nc1ccc(CO)nc1)c1ccc(Cc2cccc(F)c2)cn1 [Compound 125]
Challenge: Select one. Lower pIC50: A or B State the label of the item chosen.
Response given: A
